TARGET_OF_ASSAY: hpept1 dipeptide transporter (Homo sapiens)
Construct: expressed in transfected cells; host or cells: DC5 = human medulloblastoma cell line Dpar transfected with a eukaryotic expression plasmid holding the hPept1 gene
Sequence (P46059 whole entry): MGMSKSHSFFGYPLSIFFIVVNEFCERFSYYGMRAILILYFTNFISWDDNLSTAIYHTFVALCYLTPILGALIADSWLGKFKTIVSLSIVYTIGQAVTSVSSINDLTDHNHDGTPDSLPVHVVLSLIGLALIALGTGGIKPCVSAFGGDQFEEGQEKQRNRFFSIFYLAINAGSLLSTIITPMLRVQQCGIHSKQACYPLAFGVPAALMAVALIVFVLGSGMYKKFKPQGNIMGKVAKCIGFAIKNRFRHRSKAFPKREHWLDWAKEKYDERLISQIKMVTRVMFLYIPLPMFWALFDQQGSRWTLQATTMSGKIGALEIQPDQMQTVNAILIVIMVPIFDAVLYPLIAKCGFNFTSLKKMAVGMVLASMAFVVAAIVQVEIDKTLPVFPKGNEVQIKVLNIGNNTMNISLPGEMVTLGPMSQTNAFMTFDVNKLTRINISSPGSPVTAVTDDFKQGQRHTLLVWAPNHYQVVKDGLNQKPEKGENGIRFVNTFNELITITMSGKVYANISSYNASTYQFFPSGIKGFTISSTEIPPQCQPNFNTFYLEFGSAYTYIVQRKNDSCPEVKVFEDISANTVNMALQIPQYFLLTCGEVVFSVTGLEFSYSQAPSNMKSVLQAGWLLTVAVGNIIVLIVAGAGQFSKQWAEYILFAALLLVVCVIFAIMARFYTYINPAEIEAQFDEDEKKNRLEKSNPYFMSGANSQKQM
ASSAY_SUMMARY: Inhibition of 3H-Gly-Sar uptake in DC5 cell line (Ki determination)
Format: cell-based
CONDITION_LABEL: 50 uM 3H-Gly-Sar, 10 min, 37° C., unit inferred, mM, read-out: TSRL - Ki
MEASURED_ENDPOINT: Ki (mM)

[[record]]
compound = "Cn1nnnc1SCC1=C(C(=O)O)N2C(=O)[C@@H](NC(=O)[C@H](O)c3ccccc3)[C@H]2SC1 [Cefamandole]"
target_of_assay = "hpept1 dipeptide transporter (Homo sapiens)"
numeric_result = 16.4

[[record]]
compound = "N[C@@H](C(=O)N[C@@H]1C(=O)N2C(C(=O)O)=C(Cl)CS[C@H]12)c1ccccc1 [Cefaclor]"
target_of_assay = "hpept1 dipeptide transporter (Homo sapiens)"
numeric_result = 5.39


A = CC1=C(C(=O)O)N2C(=O)[C@@H](NC(=O)[C@H](N)c3ccc(O)cc3)[C@H]2SC1 [Cefadroxil]
B = CC(=O)OCC1=C(C(=O)O)N2C(=O)[C@@H](NC(=O)Cc3cccs3)[C@H]2SC1 [Cephalothin]
C = CC1=C(C(=O)O)N2C(=O)[C@@H](NC(=O)[C@H](N)C3=CCC=CC3)[C@H]2SC1 [Cephradine]
D = CO/N=C(\C(=O)N[C@@H]1C(=O)N2C(C(=O)O)=C(COC(N)=O)CS[C@H]12)c1ccco1 [Cefuroxime]
Your job: order these 4 records by Ki, ascending. Answer format: the labels, ordered as requested.
A, C, B, D
(A: 2.7 mM, C: 7.02 mM, B: 11.1 mM, D: 23.2 mM)

Data origin: patent US7176185B2
